This collection of values is drawn from patent US11299467B2.

Reported values of pKi for individual entries
Molecular target: NDM-1 (Klebsiella pneumoniae, UniProt C7C422)
Sequence (C7C422 29-270, looked up): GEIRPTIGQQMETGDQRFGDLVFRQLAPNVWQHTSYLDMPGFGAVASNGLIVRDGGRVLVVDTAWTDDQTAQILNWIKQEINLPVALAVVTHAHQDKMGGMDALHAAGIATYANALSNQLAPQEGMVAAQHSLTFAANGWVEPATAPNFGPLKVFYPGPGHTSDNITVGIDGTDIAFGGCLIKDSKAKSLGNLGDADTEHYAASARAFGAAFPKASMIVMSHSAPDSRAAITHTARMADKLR
Assay: In vitro enzyme inhibition assay, purified NDM-1 (imipenem hydrolysis, UV 299 nm)
Format: biochemical
Details: mean Ki from multiple experiments; imipenem 300 μM; Cheng-Prusoff from IC50; read-out: Ki NDM-1
pKi: −log10 of the molar value.

Worked examples, 5 compounds total:
>>> endpoint_result("N=C(N)NCC(=O)Nc1c(F)cc(S(=O)(=O)Nc2scnc2C(=O)O)cc1F")
"> 7.30"
>>> endpoint_result("N=C(N)Nc1ccc(S(=O)(=O)Nc2scnc2C(=O)O)cc1")
"5.70 to 6.70"
>>> endpoint_result("N=C(N)CCC(=O)Nc1ccc(S(=O)(=O)Nc2scnc2C(=O)O)cc1F")
"> 7.30"
>>> endpoint_result("N=C(N)NCCSC(=O)Nc1ccc(S(=O)(=O)Nc2scnc2C(=O)O)cc1F")
"> 7.30"
>>> endpoint_result("N=C(N)NCC(=O)Nc1ncc(S(=O)(=O)Nc2scnc2C(=O)O)cc1F")
"6.70 to 7.30"

In: Requested read-out: pKi. Entry: "CNC(=N)CC(=O)Nc1ccc(S(=O)(=O)Nc2scnc2C(=O)O)cc1F"
Out: > 7.30

In: Requested read-out: pKi. Entry: "N=C(NCCN)NCC(=O)Nc1ccc(S(=O)(=O)Nc2scnc2C(=O)O)cc1F"
Out: 5.70 to 6.70

In: Requested read-out: pKi. Entry: "N=C(N)N/N=C/C(=O)Nc1ccc(S(=O)(=O)Nc2scnc2C(=O)O)cc1F"
Out: 6.70 to 7.30

In: Requested read-out: pKi. Entry: "N#CNC(=N)NCC(=O)Nc1ccc(S(=O)(=O)Nc2scnc2C(=O)O)cc1F"
Out: > 7.30
